EXPERIMENTAL_TARGET: Human Platelet PAF Receptor (Homo sapiens, UniProt P25105)
Construct: endogenous in cells; host or cells: washed intact platelets from blood of healthy human donors
Sequence (P25105 whole entry): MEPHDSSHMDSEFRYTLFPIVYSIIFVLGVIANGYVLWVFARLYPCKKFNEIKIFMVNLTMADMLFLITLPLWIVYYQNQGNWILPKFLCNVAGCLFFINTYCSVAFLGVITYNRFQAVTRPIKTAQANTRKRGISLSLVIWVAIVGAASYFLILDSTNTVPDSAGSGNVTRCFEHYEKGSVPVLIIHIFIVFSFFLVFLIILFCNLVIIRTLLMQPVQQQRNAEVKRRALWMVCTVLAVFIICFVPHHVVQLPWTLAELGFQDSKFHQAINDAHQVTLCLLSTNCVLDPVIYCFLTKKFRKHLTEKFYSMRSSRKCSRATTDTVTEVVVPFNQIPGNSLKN
PROTOCOL_NOTES: Human Platelet PAF Receptor Assay test (Test A): inhibition of specific binding of [3H]-PAF to platelets
CONDITION_LABEL: inhibition of [3H]-PAF specific binding, unit printed um
ENDPOINT: IC50 (µM)
Form entry: value (µM) — number only.

Task: Using known records, supply IC50 for COc1cc([C@H]2CC[C@H](c3cc(OC)c(OC)c(OC)c3)C2OC)cc(OC)c1OC (relative stereo)
Output: 0.1
